Data credit: PubChem BioAssay (NCI)

Provide the recorded TGI for the entries that follow.
# System: SK-OV-3 ovarian
# measurement_notes: NCI tumour cell line growth inhibition, 48 h

Consider the following illustrative entries.
{"columns": ["compound", "TGI"],
 "data": [
  ["C1CSCCSCCCSC2CCCCC2SC1 (stereo unspecified)", "> 100 µM"],
  ["C=C(CO)CC(O)c1cc(OC)ccc1OC (stereo unspecified)", "> 100 µM"],
  ["NC(N)=NS(=O)(=O)c1ccc(N/N=C2/CCOC2=O)cc1", "> 100 µM"]
]}

Below are 6 compounds. Give each one its TGI.
1. COc1cc2c(c(OC)c1OC)-c1ccc(SC)c(=O)cc1C(CC(=O)Oc1cccc([N+](=O)[O-])c1)C2 (stereo unspecified)
2. O=S(=O)(CCN1CCOCC1)Nc1cc(-c2ccc3ncnc(Nc4ccc(F)c(Cl)c4)c3c2)cnc1Cl
3. COc1cc(C2c3cc4c(cc3[C@@H](Nc3cccc(CO)c3)C3COC(=O)[C@H]23)OCO4)cc(OC)c1O (stereo partly specified)
4. CCOC(=O)C(=O)C=P(c1ccccc1)(c1ccccc1)c1ccccc1
5. NNC(=O)CC(=O)Nc1cccc(Cl)c1
6. Nc1c(C(=O)Nc2ccccc2)sc2nc3c(cc12)CCCCC3

1. > 100 µM
2. 1.94 µM
3. 9.04 µM
4. > 100 µM
5. > 100 µM
6. 10.8 µM

Below are 6 compounds. Give each one its TGI.
1. O=C(/C=C/c1ccc(Cl)cc1)c1ccccc(=O)c1O
2. CC/C=C\C[C@H](F)C/C=C1/C(=O)C=C[C@@H]1C/C=C\CCCC(=O)OC
3. O=C(CN(C(=O)OC12CC3CC(CC(C3)C1)C2)C(=O)OC12CC3CC(CC(C3)C1)C2)Oc1ccc([N+](=O)[O-])cc1
4. COc1ccc(C#Cc2ccc(=O)oc2-c2cc(OC)c(OC)c(OC)c2)cc1O
5. CC(=O)/C(=C/c1ccccc1)C(=O)CC(C)C
6. C=CCN1/C(=C(\C#N)c2nc3ccccc3[nH]2)Sc2c1nc[nH]c2=O

1. 16.6 µM
2. 32.1 µM
3. > 100 µM
4. > 83.1 µM
5. 99 µM
6. > 100 µM

Below are 4 compounds. Give each one its TGI.
1. COC(=O)c1cc(C(=O)OC)c(CC(=O)C(=O)NC2C3CC4CC(C3)CC2C4)nc1CC(=O)C(=O)NC1C2CC3CC(C2)CC1C3 (stereo unspecified)
2. CSC1(C)C(=O)Nc2c(OCc3ccccc3)cc([N+](=O)[O-])cc21 (stereo unspecified)
3. CC1(C)[C@@H]2CC[C@]1(C)[C@H](OC(=O)/C=C/c1ccccc1)C2
4. COc1cc(C(=O)O[C@H](C(=O)NCCCNC(=O)[C@@H](OC(=O)c2cc(OC)cc3c(C)cccc23)[C@]2(C)CO2)[C@]2(C)CO2)c2cccc(C)c2c1

1: > 100 µM; 2: > 100 µM; 3: 84.2 µM; 4: 1.98 µM
